- experimental_target: EGFR wild type (Homo sapiens, UniProt P00533)
- Construct: purchased Carna Bio
- Sequence (P00533 25-1210): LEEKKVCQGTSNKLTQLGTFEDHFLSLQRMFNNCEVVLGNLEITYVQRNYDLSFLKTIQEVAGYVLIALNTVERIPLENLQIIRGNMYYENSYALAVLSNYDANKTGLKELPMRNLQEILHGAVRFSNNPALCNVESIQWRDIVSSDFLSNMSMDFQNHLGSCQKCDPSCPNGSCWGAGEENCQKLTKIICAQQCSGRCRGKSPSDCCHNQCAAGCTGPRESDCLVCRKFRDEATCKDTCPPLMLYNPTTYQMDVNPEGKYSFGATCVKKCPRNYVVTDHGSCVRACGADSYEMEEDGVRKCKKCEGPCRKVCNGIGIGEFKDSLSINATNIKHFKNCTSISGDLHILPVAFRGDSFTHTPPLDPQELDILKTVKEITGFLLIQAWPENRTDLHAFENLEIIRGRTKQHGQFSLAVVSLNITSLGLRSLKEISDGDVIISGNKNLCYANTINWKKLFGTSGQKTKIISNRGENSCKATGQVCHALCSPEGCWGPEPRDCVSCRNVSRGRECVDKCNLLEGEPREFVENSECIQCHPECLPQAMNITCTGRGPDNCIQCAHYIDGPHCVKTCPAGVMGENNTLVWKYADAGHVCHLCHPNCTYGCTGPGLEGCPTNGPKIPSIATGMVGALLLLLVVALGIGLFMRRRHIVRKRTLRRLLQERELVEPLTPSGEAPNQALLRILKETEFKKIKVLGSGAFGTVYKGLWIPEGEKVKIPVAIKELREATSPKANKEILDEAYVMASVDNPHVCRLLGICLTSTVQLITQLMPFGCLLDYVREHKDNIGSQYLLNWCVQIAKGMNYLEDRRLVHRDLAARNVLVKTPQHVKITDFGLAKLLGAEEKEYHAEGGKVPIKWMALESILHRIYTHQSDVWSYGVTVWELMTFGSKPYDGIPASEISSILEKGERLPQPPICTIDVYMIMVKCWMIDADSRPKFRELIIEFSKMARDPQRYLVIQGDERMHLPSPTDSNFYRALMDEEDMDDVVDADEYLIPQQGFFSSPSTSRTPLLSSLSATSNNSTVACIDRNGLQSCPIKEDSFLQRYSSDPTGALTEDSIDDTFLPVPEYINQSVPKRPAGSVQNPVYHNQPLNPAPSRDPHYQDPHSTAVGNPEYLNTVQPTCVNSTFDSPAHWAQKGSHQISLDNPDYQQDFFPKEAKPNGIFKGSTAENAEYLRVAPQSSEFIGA
- test: Inhibition of EGFR wild type biochemical enzymatic activity (HTRF)
- assay_context: EGFR WT, 1 mM ATP, 1 h, room temperature, read-out: IC50 (nM) @WT
measurement_name: IC50

| compound | data_value |
| --- | --- |
| C[C@@H]1CCCOc2c(cnn2C)-c2cc(cn(C)c2=O)C(=O)Nc2nc3ccc(N4CCC(N5CCN(C)CC5)C4)cc3n2C1 (stereo partly drawn) | 22 nM |
| C[C@@H]1CCCOc2c(cnn2C)-c2cc(cn(C)c2=O)C(=O)Nc2nc3ccc(N4CCN(C(=O)OC(C)(C)C)CC4)cc3n2C1 | > 5000 nM |
| CN1CCN(c2ccc3nc4n(c3c2)CC2(CCCOc3c(cnn3C)-c3cc(cn(C)c3=O)C(=O)N4)CC2)CC1 | > 5000 nM |
| CN1CCC2(CN(c3ccc4nc5n(c4c3)C34CCC(CN(CCOc6c(cnn6C)-c6cc(cn(C)c6=O)C(=O)N5)C3)C4)C2)C(F)(F)C1 (single isomer, unassigned) [Example A91A] | > 5000 nM |
| Cc1cc2cc(n1)-c1cnn(C)c1OCCN1CC3CCC(CC3)(C1)n1c(nc3ccc(N4CCN(C)CC4)cc31)NC2=O | 954 nM |

Now for a further compound.
Memo: CCN1CCOc2c(cnn2C)-c2cc(cn(C)c2=O)C(=O)Nc2nc3ccccc3n2C(C)C1 (stereo not drawn) , reported IC50: > 5000 nM

###

- Test system: Ba/F3 cells expressing EGFR mutations
- test: Cell proliferation assay, Ba/F3 cells expressing EGFR mutations (CellTiter-Glo, 72 hours)
- Format: cell-based
- assay_context: Mus musculus, BaF3, 72 h, BaF3 cells, EGFR L858R - T790-C797S, read-out: GI50 L858R - T790-C797S/BaF3
measurement_name: GI50 (nM)

| molecule | experimental_target | measurement_name | data_value |
| --- | --- | --- | --- |
| Cc1cc2cc(n1)-c1cnn(C)c1OCCN1CC3CCC(CC3)(C1)n1c(nc3ccc(N4CCN(C)CC4)cc31)NC2=O | Ba/F3 cells expressing EGFR mutations | GI50 | 5.2 |

[1] Cc1cc2cc(n1)-c1cnn(C)c1OCCC[C@@H](C)Cn1c(nc3ccc4c(c31)CCN(C1COC1)C4)NC2=O
[2] Cn1ncc2c1OCCN1CC3CCC(C3)(C1)n1c(nc3cc(F)c(N4CCOCC4)cc31)NC(=O)c1cc-2c(=O)n(C)c1 (single isomer, unassigned) [Example A118B]
Ask | Just curious, which one has the larger GI50 reading, 1 or 2 ? The response must carry the label of the picked entry.
Reply | 2

###

- experimental_target: EGFR wild type (Homo sapiens, UniProt P00533)
- Construct: purchased Carna Bio
- test: Inhibition of EGFR wild type biochemical enzymatic activity (HTRF)
- assay_context: EGFR WT, 1 mM ATP, 1 h, room temperature, read-out: IC50 (nM) @WT
measurement_name: IC50 (nM)

[P] Cn1ncc2c1OCCN1CC3CCC(C3)(C1)n1c(nc3ccc(N4CCN(C5COC5)CC4)cc31)NC(=O)c1cc-2c(=O)n(C)c1 (single isomer, unassigned) [Example A71B]
[Q] CCN1CCN(c2ccc3nc4n(c3c2)C[C@H](C)CCCOc2c(cnn2C)-c2cc(cn(C)c2=O)C(=O)N4)CC1
[R] CN(C)CCCN(C)c1ccc2nc3n(c2c1)C12CCC(CN(CCOc4c(cnn4C)-c4cc(cn(C)c4=O)C(=O)N3)C1)C2 (single isomer, unassigned) [Example A89B]
Ask | Sort ascending by IC50. Answer by naming the labels in the order asked.
Reply | R, P, Q

Data origin, for the record: patent US20260365670A1
